Reference for the values: patent US11207431B2

tgt: HDAC4 (Homo sapiens (Human))
Sequence (P56524 whole entry): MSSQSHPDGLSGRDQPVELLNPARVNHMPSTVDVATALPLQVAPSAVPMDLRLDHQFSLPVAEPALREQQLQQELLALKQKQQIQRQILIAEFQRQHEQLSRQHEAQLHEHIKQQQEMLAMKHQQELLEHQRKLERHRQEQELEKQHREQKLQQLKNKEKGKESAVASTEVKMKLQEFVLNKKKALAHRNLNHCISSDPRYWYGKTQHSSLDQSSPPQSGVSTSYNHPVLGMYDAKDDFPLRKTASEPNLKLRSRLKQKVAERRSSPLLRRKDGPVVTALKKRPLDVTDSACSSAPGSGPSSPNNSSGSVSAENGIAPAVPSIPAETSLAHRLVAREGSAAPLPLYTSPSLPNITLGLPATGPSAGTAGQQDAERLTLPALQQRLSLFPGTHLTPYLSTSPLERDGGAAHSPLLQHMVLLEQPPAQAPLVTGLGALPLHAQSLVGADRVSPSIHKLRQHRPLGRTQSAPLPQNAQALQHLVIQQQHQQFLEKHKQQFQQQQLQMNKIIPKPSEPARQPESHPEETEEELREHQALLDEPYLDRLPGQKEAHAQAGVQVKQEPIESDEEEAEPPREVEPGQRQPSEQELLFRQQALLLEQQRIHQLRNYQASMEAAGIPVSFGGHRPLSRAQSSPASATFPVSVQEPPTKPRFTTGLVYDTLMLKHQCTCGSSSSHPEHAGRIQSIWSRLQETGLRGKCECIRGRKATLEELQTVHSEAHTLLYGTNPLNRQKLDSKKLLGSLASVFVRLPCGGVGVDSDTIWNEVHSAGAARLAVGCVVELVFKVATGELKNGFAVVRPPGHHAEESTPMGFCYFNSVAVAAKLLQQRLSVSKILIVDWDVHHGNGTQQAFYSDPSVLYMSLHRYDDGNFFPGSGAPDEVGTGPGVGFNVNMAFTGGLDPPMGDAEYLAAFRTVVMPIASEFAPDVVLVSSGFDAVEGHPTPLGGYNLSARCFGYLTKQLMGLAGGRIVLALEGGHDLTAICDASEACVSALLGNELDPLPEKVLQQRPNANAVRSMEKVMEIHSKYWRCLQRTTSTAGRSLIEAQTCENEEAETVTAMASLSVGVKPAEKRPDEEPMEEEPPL
assay protocol: IC50 values of comparison compounds B-F (Table 1B)
Format: biochemical
experimental setup: comparison compound C, source not stated
measurement label: IC50 (nM)
Value expressed in nM; do not type the unit.

Exercise: Sample `CN(c1ncc(C(=O)NO)cn1)C12CC3CC(CC(C3)C1)C2` — what was its IC50?
Solution: 34

---

tgt: HDAC3 (Homo sapiens (Human), UniProt O15379)
Sequence (O15379 whole entry): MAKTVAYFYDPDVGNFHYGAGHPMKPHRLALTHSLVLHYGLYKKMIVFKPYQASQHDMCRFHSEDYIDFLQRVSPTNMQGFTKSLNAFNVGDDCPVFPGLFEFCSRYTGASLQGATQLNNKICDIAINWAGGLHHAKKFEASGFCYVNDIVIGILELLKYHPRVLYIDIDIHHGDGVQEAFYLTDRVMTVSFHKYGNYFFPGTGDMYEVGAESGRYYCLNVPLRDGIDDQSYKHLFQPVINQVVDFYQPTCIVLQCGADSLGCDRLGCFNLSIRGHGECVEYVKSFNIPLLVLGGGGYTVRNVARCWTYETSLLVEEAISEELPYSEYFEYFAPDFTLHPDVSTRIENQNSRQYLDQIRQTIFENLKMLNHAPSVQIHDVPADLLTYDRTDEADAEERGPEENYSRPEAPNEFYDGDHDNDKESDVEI
Sequence (Q9Y618 395-489 partner): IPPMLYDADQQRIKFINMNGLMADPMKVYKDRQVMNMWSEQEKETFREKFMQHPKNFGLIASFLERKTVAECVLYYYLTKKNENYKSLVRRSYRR
assay protocol: IC50 assay, BPS Biosciences fluorescence assay
Type: biochemical
experimental setup: BPS Biosciences fluorescence assay
measurement label: IC50 (nM)
Hi! Could you send only the number? It should be in nM, unit omitted.

Exercise: Fill blank: measured IC50 of the compound `CN(Cc1ccc(/C=C/C(=O)NO)cc1)CC12CC3CC(CC(C3)C1)C2` is ____.
Solution: 7.1

---

tgt: HDAC1 (Homo sapiens (Human))
assay protocol: IC50 assay, BPS Biosciences fluorescence assay
Type: biochemical
experimental setup: BPS Biosciences fluorescence assay
measurement label: IC50 (nM)
Numbers only; they are read as nM.

Exercise: Give the measured IC50 of `CN(Cc1ccc(/C=C/C(=O)NO)cc1)CC12CC3CC(CC(C3)C1)C2` .
Solution: 6.2

---

tgt: HDAC5 (Homo sapiens (Human), UniProt Q9UQL6)
Sequence (Q9UQL6 whole entry): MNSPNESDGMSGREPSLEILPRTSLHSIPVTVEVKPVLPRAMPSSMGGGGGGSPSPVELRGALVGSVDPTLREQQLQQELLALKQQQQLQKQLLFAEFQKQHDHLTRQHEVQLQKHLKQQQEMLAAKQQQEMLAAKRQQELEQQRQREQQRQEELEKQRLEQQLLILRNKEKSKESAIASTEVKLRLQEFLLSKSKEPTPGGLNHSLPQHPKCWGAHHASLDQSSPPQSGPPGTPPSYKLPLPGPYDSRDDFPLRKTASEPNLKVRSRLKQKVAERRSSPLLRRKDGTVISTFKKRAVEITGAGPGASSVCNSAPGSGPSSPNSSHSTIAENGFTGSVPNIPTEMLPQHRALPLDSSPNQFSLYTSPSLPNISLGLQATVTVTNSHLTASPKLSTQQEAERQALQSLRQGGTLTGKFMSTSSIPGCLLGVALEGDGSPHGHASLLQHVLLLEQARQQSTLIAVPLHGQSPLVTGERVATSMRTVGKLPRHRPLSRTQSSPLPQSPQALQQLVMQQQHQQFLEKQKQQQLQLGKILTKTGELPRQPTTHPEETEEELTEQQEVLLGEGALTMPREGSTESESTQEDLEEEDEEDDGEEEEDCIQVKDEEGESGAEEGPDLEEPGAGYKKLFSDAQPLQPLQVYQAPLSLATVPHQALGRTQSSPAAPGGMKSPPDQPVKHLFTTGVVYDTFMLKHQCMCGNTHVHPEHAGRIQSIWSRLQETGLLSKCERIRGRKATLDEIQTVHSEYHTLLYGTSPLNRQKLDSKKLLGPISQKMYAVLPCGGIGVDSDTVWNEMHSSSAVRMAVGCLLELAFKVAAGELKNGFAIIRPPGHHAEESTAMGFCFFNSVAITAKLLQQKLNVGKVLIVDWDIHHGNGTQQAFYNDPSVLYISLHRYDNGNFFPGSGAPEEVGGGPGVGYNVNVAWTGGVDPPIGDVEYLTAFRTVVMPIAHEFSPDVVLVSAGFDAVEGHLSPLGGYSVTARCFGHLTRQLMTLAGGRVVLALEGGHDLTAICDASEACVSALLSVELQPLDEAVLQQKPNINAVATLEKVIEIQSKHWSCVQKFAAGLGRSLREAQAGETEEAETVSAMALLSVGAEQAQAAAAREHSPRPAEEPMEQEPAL
assay protocol: IC50 assay, BPS Biosciences fluorescence assay
Type: biochemical
measurement label: IC50
Units required after the number.

Exercise: May I ask what IC50 has been recorded for `CN(Cc1ccc(/C=C/C(=O)NO)cc1)CC12CC3CC(CC(C3)C1)C2` ?
Solution: 980 nM

---

tgt: HDAC7 (Homo sapiens (Human))
Sequence (Q8WUI4 whole entry): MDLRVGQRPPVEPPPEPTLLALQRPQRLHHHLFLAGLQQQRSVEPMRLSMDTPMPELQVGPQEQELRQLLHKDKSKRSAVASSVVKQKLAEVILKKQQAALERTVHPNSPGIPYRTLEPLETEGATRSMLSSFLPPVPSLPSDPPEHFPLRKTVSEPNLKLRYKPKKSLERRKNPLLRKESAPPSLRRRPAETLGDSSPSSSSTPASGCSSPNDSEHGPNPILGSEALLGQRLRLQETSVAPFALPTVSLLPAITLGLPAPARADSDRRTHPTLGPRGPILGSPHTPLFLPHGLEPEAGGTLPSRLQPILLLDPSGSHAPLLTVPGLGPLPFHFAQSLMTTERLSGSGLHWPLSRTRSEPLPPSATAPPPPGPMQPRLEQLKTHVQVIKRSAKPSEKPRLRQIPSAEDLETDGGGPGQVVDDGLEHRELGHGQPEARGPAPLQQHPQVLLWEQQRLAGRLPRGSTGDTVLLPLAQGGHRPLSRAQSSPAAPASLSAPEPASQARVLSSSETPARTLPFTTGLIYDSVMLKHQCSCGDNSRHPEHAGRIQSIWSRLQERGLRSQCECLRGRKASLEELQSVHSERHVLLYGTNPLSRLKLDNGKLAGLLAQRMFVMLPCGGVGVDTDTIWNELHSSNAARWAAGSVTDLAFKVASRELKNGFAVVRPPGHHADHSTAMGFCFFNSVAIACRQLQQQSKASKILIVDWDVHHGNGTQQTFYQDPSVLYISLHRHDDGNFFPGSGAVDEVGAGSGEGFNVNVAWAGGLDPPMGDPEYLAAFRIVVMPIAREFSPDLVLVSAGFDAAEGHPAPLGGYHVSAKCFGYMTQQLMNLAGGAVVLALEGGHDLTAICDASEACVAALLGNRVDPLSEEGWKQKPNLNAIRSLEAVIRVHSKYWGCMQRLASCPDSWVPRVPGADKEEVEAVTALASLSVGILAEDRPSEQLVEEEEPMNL
assay protocol: IC50 assay by Nanosyn (Caliper microfluidics mobility shift detection)
Type: biochemical
experimental setup: IC50 measured by Nanosyn
pIC50: −log10 of the molar value.
measurement label: pIC50

Exercise: // returns reported pIC50 for input `CN(Cc1ccc(/C=C/C(=O)NO)cc1)CC12CC3CC(CC(C3)C1)C2`
Solution: < 6.00

---

tgt: HDAC6 (Homo sapiens (Human), UniProt Q9UBN7)
Sequence (Q9UBN7 whole entry): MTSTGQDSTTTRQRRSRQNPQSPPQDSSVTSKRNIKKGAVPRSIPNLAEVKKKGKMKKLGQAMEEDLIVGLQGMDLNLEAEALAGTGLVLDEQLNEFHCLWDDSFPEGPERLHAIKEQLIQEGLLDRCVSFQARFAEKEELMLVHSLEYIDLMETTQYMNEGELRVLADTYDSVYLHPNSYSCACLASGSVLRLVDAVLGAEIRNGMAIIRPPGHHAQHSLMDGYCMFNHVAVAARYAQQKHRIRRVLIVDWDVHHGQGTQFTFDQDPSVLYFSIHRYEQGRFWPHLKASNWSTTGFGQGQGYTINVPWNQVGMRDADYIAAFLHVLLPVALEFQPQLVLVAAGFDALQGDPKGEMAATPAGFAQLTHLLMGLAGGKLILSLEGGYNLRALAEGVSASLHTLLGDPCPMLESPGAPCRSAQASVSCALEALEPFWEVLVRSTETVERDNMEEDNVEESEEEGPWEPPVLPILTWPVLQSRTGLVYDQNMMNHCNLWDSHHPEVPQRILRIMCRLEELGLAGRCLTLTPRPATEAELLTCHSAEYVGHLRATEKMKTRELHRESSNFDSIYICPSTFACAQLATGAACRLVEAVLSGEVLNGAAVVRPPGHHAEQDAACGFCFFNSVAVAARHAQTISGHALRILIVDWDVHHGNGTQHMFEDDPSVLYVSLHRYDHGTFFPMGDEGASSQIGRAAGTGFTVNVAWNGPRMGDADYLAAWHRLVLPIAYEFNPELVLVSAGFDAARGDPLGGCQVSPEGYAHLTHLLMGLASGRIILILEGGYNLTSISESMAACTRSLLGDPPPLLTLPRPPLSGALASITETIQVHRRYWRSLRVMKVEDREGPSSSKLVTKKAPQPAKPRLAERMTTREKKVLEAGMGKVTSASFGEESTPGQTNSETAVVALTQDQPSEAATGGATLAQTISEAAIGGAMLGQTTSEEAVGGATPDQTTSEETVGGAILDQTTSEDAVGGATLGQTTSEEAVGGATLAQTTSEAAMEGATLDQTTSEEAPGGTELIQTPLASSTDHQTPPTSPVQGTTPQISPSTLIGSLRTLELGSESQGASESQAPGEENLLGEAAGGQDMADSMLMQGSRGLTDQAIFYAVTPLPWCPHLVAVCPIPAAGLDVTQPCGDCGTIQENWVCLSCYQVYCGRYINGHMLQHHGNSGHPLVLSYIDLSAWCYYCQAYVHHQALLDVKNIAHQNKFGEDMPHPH
experimental setup: read-out: HDAC6 IC50; comparison compound C, source not stated
measurement label: pIC50
The read-out pIC50 is expressed as -log10 of concentration in moles per litre.

Exercise: Request - read-out pIC50 | tested on HDAC6 (Homo sapiens (Human), UniProt Q9UBN7) | compound `CN(c1ncc(C(=O)NO)cn1)C12CC3CC(CC(C3)C1)C2`
Solution: 7.48

---

assay protocol: in vivo
experimental setup: male, C57BL/6, mouse, ip, 5 mg/kg
measurement label: half-life (min)
Provide only the numeric value, understood in min.

Exercise: Please look up its half-life: CN(Cc1ccc(C(=O)NO)cc1F)CC12CC3CC(CC(C3)C1)C2 [Example 1]
Solution: 4.8

---

tgt: HDAC6 (Homo sapiens (Human))
assay protocol: IC50 assay by Nanosyn (Caliper microfluidics mobility shift detection)
Type: biochemical
experimental setup: IC50 measured by Nanosyn
measurement label: IC50
The reply must contain the numeric value and, after it, the unit.

Exercise: Would you kindly share the measured IC50 for CN(Cc1ccc(/C=C/C(=O)NO)cc1)CC12CC3CC(CC(C3)C1)C2 [Martinostat, martinostat] ?
Solution: 1.8 nM

---

tgt: HDAC4 (Homo sapiens (Human))
assay protocol: IC50 assay by Nanosyn (Caliper microfluidics mobility shift detection)
Assay type: biochemical
experimental setup: IC50 measured by Nanosyn
measurement label: IC50 (nM)
Use nM as the unit, but write only the number.

Exercise: Data request, read-out IC50, for `CN(Cc1ccc(/C=C/C(=O)NO)cc1)CC12CC3CC(CC(C3)C1)C2`
Solution: 240
